Entry source: ChEMBL document CHEMBL1147483

# System Tested: Prostaglandin G/H synthase 1 (Homo sapiens, UniProt P23219)
# Sequence (P23219 whole entry): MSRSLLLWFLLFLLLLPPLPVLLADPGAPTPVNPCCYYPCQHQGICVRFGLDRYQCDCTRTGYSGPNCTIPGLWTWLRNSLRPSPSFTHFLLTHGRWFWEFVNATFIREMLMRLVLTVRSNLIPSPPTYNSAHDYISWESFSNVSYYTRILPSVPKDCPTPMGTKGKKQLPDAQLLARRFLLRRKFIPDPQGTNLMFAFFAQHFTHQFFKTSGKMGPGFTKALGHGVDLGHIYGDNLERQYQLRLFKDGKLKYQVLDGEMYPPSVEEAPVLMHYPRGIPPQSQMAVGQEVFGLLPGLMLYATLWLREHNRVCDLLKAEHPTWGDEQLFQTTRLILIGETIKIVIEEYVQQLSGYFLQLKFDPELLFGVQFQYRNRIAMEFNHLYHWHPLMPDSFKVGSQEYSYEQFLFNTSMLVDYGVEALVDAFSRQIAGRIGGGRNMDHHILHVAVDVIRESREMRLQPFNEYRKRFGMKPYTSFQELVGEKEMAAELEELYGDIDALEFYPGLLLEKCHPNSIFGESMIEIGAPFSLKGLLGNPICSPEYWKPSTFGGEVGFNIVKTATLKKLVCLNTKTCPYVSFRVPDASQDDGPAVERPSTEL

{"columns": ["Smiles Structure", "IC50"],
 "data": [
  ["C[C@H](Nc1cc(-c2sc(C3CCN(C)CC3)nc2-c2ccc(F)cc2)ccn1)c1ccccc1", "> 80 µM"],
  ["CN1CCN(c2ccc3c(n2)nc(-c2ccc(F)cc2)n3-c2ccnc(NC3CCCC3)n2)CC1", "> 80 µM"],
  ["CN1CCC(O)(c2cn(-c3ccnc(NC4CCCC4)n3)c(-c3cccc(C(F)(F)F)c3)n2)CC1", "> 80 µM"]
]}

###

# System Tested: Mitogen-activated protein kinase 14 (Mus musculus)
# Sequence (P47811 whole entry): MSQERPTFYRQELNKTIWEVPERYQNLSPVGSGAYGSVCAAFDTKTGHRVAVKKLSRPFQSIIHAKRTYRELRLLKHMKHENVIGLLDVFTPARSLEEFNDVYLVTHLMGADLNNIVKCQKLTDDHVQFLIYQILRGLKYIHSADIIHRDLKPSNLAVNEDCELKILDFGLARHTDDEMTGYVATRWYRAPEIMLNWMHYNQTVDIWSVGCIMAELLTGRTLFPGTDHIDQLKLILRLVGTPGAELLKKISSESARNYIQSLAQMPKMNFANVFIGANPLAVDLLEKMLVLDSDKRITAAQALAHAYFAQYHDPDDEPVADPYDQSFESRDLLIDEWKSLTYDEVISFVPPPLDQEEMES
# Measurement Protocol: Inhibition of murine phosphorylated His-Mitogen-activated protein kinase p38 alpha.
Reported IC50 values are given for each entry in this list.
Measured Attribute: IC50 (nM)

{"columns": ["Smiles Structure", "Measured Value"],
 "data": [
  ["FC(F)(F)c1cccc(-c2nc(C3CCNCC3)cn2-c2ccnc(NC3CCCCC3)n2)c1", 8],
  ["C[C@H](Nc1cc(-c2[nH]c(C3(O)CCN(C)CC3)nc2-c2ccc(F)cc2)ccn1)c1ccccc1", 7],
  ["CN1CCC(O)(c2cn(-c3ccnc(NC4CCCC4)n3)c(-c3cccc(C(F)(F)F)c3)n2)CC1", 29],
  ["CN1CCN(c2ccc3c(n2)nc(-c2ccc(F)cc2)n3-c2ccnc(NC3CCCC3)n2)CC1", 15],
  ["C[C@H](Nc1cc(-c2sc(C3(O)CCN(C)CC3)nc2-c2ccc(F)cc2)ccn1)c1ccccc1", 5],
  ["C[C@H](Nc1cc(-c2oc(C3(O)CCN(C)CC3)nc2-c2ccc(F)cc2)ccn1)c1ccccc1", 9],
  ["C[C@H](Nc1nccc(-n2cc(C3(O)CCN(C)CC3)nc2-c2ccc(F)cc2)n1)c1ccccc1", 4],
  ["C[C@H](Nc1cc(-c2sc(C3CCN(C)CC3)nc2-c2ccc(F)cc2)ccn1)c1ccccc1", 18],
  ["Fc1ccc(-c2nc(C3CCNCC3)cn2-c2ccnc(NC3CCCCC3)n2)cc1", 5]
]}

###

# System Tested: Epidermal growth factor receptor (Homo sapiens)
# Sequence (P00533 whole entry): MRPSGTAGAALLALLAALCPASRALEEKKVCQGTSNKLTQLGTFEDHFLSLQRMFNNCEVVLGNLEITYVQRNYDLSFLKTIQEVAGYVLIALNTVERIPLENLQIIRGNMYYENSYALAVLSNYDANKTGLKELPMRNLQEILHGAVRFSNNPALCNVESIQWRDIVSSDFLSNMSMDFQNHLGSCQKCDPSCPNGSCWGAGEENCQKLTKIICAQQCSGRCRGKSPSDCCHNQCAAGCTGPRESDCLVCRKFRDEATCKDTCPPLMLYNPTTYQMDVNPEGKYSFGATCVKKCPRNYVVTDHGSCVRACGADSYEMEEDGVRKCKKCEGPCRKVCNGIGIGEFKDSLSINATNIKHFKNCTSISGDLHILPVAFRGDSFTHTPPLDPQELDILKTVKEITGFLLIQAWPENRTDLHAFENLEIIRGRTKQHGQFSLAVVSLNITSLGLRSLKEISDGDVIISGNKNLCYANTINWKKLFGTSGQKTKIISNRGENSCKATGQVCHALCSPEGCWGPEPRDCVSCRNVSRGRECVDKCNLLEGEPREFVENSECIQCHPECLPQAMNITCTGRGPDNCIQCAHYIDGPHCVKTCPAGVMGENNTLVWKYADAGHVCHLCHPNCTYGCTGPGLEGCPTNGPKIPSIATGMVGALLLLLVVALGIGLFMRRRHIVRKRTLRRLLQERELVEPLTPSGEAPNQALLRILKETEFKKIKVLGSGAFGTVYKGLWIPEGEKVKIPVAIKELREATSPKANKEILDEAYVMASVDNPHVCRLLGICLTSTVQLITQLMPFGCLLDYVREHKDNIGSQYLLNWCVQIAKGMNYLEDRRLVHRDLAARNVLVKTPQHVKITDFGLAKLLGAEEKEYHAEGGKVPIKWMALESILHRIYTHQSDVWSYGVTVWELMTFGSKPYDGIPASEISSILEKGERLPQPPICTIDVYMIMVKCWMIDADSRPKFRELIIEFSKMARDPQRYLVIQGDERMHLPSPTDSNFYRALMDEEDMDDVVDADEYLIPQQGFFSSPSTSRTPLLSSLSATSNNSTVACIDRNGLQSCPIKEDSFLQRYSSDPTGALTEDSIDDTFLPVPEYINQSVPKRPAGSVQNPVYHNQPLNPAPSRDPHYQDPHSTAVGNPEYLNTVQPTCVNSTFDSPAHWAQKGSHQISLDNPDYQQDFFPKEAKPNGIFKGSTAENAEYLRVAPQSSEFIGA
# Measurement Protocol: Inhibition of human epidermal growth factor receptor
Measured Attribute: IC50 (nM)

{"columns": ["Smiles Structure", "Measured Value"],
 "data": [
  ["C[C@H](Nc1cc(-c2sc(C3CCN(C)CC3)nc2-c2ccc(F)cc2)ccn1)c1ccccc1", 700]
]}

###

# System Tested: Cyclin-dependent kinase 1 (Homo sapiens)
# Sequence (P06493 whole entry): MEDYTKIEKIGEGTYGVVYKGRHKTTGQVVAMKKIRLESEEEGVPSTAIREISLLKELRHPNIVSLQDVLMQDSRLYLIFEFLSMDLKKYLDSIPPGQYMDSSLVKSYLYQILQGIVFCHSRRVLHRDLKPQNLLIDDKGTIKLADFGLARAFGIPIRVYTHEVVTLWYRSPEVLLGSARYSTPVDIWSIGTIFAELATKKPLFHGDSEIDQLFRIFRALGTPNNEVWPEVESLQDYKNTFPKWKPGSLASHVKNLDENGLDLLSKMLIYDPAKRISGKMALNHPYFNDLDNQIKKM
pIC50: −log10 of the molar value.
Reported pIC50 values are given for each entry in this list.

{"columns": ["Smiles Structure", "pIC50"],
 "data": [
  ["CN1CCC(O)(c2cn(-c3ccnc(NC4CCCC4)n3)c(-c3cccc(C(F)(F)F)c3)n2)CC1", "< 5.00"],
  ["C[C@H](Nc1cc(-c2sc(C3CCN(C)CC3)nc2-c2ccc(F)cc2)ccn1)c1ccccc1", "< 5.00"],
  ["CN1CCN(c2ccc3c(n2)nc(-c2ccc(F)cc2)n3-c2ccnc(NC3CCCC3)n2)CC1", "< 5.00"]
]}

###

# Measurement Protocol: Oral bioavailability
# Assay type: ADME, organism-based
# Settings: rat, in vivo
Measured Attribute: bioavailability (%)

{"columns": ["Smiles Structure", "Measured Attribute", "Unit Tag", "Measured Value"],
 "data": [
  ["CN1CCN(c2ccc3c(n2)nc(-c2ccc(F)cc2)n3-c2ccnc(NC3CCCC3)n2)CC1", "bioavailability", "%", 72.8],
  ["CN1CCC(O)(c2cn(-c3ccnc(NC4CCCC4)n3)c(-c3cccc(C(F)(F)F)c3)n2)CC1", "bioavailability", "%", 23.2],
  ["C[C@H](Nc1cc(-c2sc(C3CCN(C)CC3)nc2-c2ccc(F)cc2)ccn1)c1ccccc1", "bioavailability", "%", 20.3],
  ["C[C@H](Nc1nccc(-c2[nH]c(C3(O)CCN(C)CC3)nc2-c2ccc(F)cc2)n1)c1ccccc1", "bioavailability", "%", 10]
]}
